Molecular target: JH2 domain of human Tyk2 (Homo sapiens, UniProt P29597)
Construct: 10×His-tagged TYK2 JH2 domain (amino acid 575-876)
Sequence (P29597 575-876): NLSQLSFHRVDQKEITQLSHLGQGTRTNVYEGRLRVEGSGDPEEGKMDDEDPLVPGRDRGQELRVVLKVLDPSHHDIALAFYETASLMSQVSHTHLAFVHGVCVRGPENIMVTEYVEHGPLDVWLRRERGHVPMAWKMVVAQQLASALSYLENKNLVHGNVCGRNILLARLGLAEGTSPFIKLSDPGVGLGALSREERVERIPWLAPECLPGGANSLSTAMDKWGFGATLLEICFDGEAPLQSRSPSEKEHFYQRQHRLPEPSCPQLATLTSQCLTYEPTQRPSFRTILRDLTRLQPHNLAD
Assay: JH2 biochemical assay (TR-FRET probe displacement)
Assay type: binding
Conditions: JH2 biochemical assay
pIC50: −log10 of the molar value. Counter-ions that a name gives are not always drawn.
Readout name: pIC50

CC(=O)Nc1cc2c(cn1)C1(CC1)CN2c1nc(C)cc(C(C)(F)F)n1 [Example 83] ... ≥ 8.00
CC(=O)Nc1cc2c(cn1)C1(CC1)CN2c1cc(C)nc(C(C)S(C)(=O)=O)n1 (centres unmarked) [Example 97] ... ≥ 8.00
CC(=O)Nc1cc2c(cn1)C1(CC1)CN2c1cc(C)cc(-c2cnn(C)c2C(F)F)n1 [Example 262, trifluoroacetate] ... 7.00 to 8.00
CC(=O)Nc1cc2c(cn1)C1(CC1)CN2c1cc(C)cc(N2CC(F)C2)n1 [Example 195] ... 7.00 to 8.00
COC1CC1Nc1cc(N2CC3(CC3)c3cnc(NC(C)=O)cc32)nc(C(C)(F)F)n1 (centres unmarked) [Example 177] ... ≥ 8.00
CC(=O)Nc1cc2c(cn1)C1(CC1)CN2c1cc(F)nc(C(C)(F)F)n1 [Example 305, trifluoroacetate] ... 7.00 to 8.00

IN: I'd like to know its pIC50. The molecule in question is CC(=O)Nc1cc2c(cn1)C1(CC1)CN2c1cc(-c2cnn(C)c2)nc(C(C)(F)F)n1 [Example 238]
OUT: ≥ 8.00

IN: I'd like to know its pIC50. The molecule in question is CC(=O)Nc1cc2c(cn1)C1(CC1)CN2c1cc(C)nc(C(C)(C)C)n1 [Example 55]
OUT: ≥ 8.00

IN: I'd like to know its pIC50. The molecule in question is CCC(F)(F)c1nc(C)cc(N2CC3(CC3)c3cnc(NC(C)=O)cc32)n1 [Example 304, trifluoroacetate]
OUT: ≥ 8.00

IN: I'd like to know its pIC50. The molecule in question is CCCCc1nc(C)cc(N2CC3(CC3)c3cnc(NC(C)=O)cc32)n1 [Example 58]
OUT: 7.00 to 8.00

IN: I'd like to know its pIC50. The molecule in question is CCOC(=O)c1cc(N2CC3(CC3)c3cnc(NC(C)=O)cc32)nc(C(C)(F)F)n1 [Example 291]
OUT: ≥ 8.00

IN: I'd like to know its pIC50. The molecule in question is CC(=O)Nc1cc2c(cn1)C1(CC1)CN2c1cc(N)nc(C(C)(F)F)n1 [Example 273, trifluoroacetate]
OUT: ≥ 8.00

IN: I'd like to know its pIC50. The molecule in question is COCCCc1cc(N2CC3(CC3)c3cnc(NC(C)=O)cc32)nc(C(C)(F)F)n1 [Example 326]
OUT: ≥ 8.00

* * *

Target: JH2 domain of human Tyk2 (Homo sapiens)
Construct: 10×His-tagged TYK2 JH2 domain (amino acid 575-876)
Assay: JH2 biochemical assay (TR-FRET probe displacement)
Type: binding
Details: JH2 biochemical assay
pIC50: −log10 of the molar value. Structures can show the parent of a compound that is named as a salt.
pIC50 values for the compounds below.

# count of solved cases: 4
COC1CC(COc2cc(C)cc(N3CC4(CC4)c4cnc(NC(C)=O)cc43)n2)C1 (centres unmarked) ... 6.00 to 7.00
CC(=O)Nc1cc2c(cn1)C1(CC1)CN2c1cc(C)nc(N2CCOCC2)n1 ... 7.00 to 8.00
CC(=O)Nc1cc2c(cn1)C(C)(C)CN2c1nccc(C(C)(F)F)n1 ... ≤ 6.00
COC1(C(=O)C2CC2)CCN(c2nc(C)cc(N3CC4(CC4)c4cnc(NC(C)=O)cc43)n2)CC1 [Example 231, trifluoroacetate] ... 6.00 to 7.00

Let's switch to this compound now.
IN: I'd like to know its pIC50. The compound in question is `CC(=O)Nc1cc2c(cn1)C1(CC1)CN2c1nc(C)nc(C)c1F`
OUT: 6.00 to 7.00

* * *

pIC50 values for the compounds below.
Target: JH2 domain of human Tyk2 (Homo sapiens, UniProt P29597)
Construct: 10×His-tagged TYK2 JH2 domain (amino acid 575-876)
Test: JH2 biochemical assay (TR-FRET probe displacement)
Format: binding
Settings: TR-FRET probe displacement, JH2 domain of human Tyk2
pIC50: −log10 of the molar value. Structures can show the parent of a compound that is named as a salt.

# count of solved cases: 6
CC(=O)Nc1cc2c(cn1)C1(CC1)CN2c1cc(-c2cnn(CCN3CCOCC3)c2)nc(C(C)(F)F)n1 [Example 390, trifluoroacetate] ... ≥ 8.00
COC1(COc2nc(C)cc(N3CC4(CC4)c4cnc(NC(C)=O)cc43)n2)CCC1 ... 6.00 to 7.00
COCC1CC(Oc2nc(C)cc(N3CC4(CC4)c4cnc(NC(C)=O)cc43)n2)C1 (stereo not shown) ... 6.00 to 7.00
CC(=O)Nc1cc2c(cn1)C1(CC1)CN2c1cc(-c2cnn(C3CC3)c2)nc(C(C)(F)F)n1 [Example 387, trifluoroacetate] ... ≥ 8.00
CC(=O)Nc1cc2c(cn1)C1(CC1)CN2c1cc(C)nc(N2CC(CC(C)C)C2)n1 [Example 410, trifluoroacetate] ... ≤ 6.00
CC(=O)Nc1cc2c(cn1)C1(CC1)CN2c1cc(C)cc(N2CCN(CCO)CC2)n1 ... 6.00 to 7.00

IN: I'd like to know its pIC50. The compound in question is CC(=O)Nc1cc2c(cn1)C1(CC1)CN2c1cc(C)cc(N2CCC(C)(C#N)C2)n1 (stereo not shown)
OUT: 7.00 to 8.00

* * *

Target: JH2 domain of human Tyk2 (Homo sapiens, UniProt P29597)
Construct: 10×His-tagged TYK2 JH2 domain (amino acid 575-876)
Experiment: JH2 biochemical assay (TR-FRET probe displacement)
Assay type: binding
Details: JH2 biochemical assay
pIC50: −log10 of the molar value. Counter-ions that a name gives are not always drawn.
Readout name: pIC50

# count of solved cases: 6
CC(=O)Nc1cc2c(cn1)C1(CC1)CN2c1cc(-c2ccn(C)n2)nc(C(C)(F)F)n1 ... ≥ 8.00
CC(=O)Nc1cc2c(cn1)C1(CC1)CN2c1cc(C)cc(-c2cnn(CC3CC3)c2)n1 [Example 266, trifluoroacetate] ... 7.00 to 8.00
CC(=O)Nc1cc2c(cn1)C1(CC1)CN2c1cc(C(=O)O)nc(C(C)(F)F)n1 ... 7.00 to 8.00
CC(=O)Nc1cc2c(cn1)C1(CC1)CN2c1cc(C2CCCO2)nc(C(C)(F)F)n1 (stereo not shown) ... ≥ 8.00
CC(=O)Nc1cc2c(cn1)C1(CC1)CN2c1cc(C)cc(OC2CCC(O)C2)n1 (stereo not shown) [Example 337, trifluoroacetate] ... 7.00 to 8.00
CC(=O)Nc1cc2c(cn1)C1(CC1)CN2c1cc(C)nc(-c2cnn(CC3CC3)c2)n1 [Example 253, trifluoroacetate] ... 7.00 to 8.00

IN: I'd like to know its pIC50. The compound in question is CC(=O)Nc1cc2c(cn1)C1(CC1)CN2c1cc(C)nc(C2CCOC2)n1 (stereo not shown)
OUT: ≥ 8.00

IN: I'd like to know its pIC50. The compound in question is `COCCOc1cc(N2CC3(CC3)c3cnc(NC(C)=O)cc32)nc(C(C)(F)F)c1`
OUT: ≥ 8.00

IN: I'd like to know its pIC50. The compound in question is COC1CC(c2nc(C)cc(N3CC4(CC4)c4cnc(NC(C)=O)cc43)n2)C1 (stereo not shown)
OUT: ≥ 8.00

IN: I'd like to know its pIC50. The compound in question is COC1CC(Oc2cc(N3CC4(CC4)c4cnc(NC(C)=O)cc43)nc(C(C)(F)F)n2)C1 (stereo not shown)
OUT: ≥ 8.00

IN: I'd like to know its pIC50. The compound in question is `CC(=O)Nc1cc2c(cn1)C1(CCNCC1)CN2c1nccc(C(C)(F)F)n1`
OUT: ≤ 6.00

* * *

Molecular target: JH2 domain of human Tyk2 (Homo sapiens, UniProt P29597)
Construct: 10×His-tagged TYK2 JH2 domain (amino acid 575-876)
Assay: JH2 biochemical assay (TR-FRET probe displacement)
Format: binding
Conditions: JH2 biochemical assay
pIC50: −log10 of the molar value.
pIC50 values for the compounds below.

# count of solved cases: 8
CC(=O)Nc1cc2c(cn1)C1(CC1)CN2c1cc(C)nc(N2CCC2C)n1 (stereo not drawn) ... ≥ 8.00
CC(=O)Nc1cc2c(cn1)C1(CC1)CN2c1cc(C)nc(N2CC(C(F)F)C2)n1 ... 7.00 to 8.00
CC(=O)Nc1cc2c(cn1)C1(CC1)CN2c1cccc(C2COC2)n1 ... 7.00 to 8.00
COC(C)(C)c1nccc(N2CC3(CC3)c3cnc(NC(C)=O)cc32)n1 ... 7.00 to 8.00
CC(=O)Nc1cc2c(cn1)C1(CC1)CN2c1cc(C)nc(C2CCCOC2)n1 (stereo not drawn) ... ≥ 8.00
CC(=O)Nc1cc2c(cn1)C1(CC1)CN2c1ccccn1 ... 6.00 to 7.00
CC(=O)Nc1cc2c(cn1)C1(CC1)CN2c1cc(C)nc(N2CCC(O)CC2)n1 ... 6.00 to 7.00
COCCC(=O)Nc1cc2c(cn1)C1(CC1)CN2c1ccnc(C(C)(F)F)n1 ... 7.00 to 8.00

Let's switch to this compound now.
IN: I'd like to know its pIC50. The compound in question is `CC(=O)Nc1cc2c(cn1)C1(CC1)CN2c1cc(C)nc(C(F)F)n1`
OUT: 7.00 to 8.00
